ASSAY_REMARKS: Antiproliferative activity against wild type p110alpha expressing human NZOV9 cells after 5 days by [3H]-thymidine incorporation assay
Type: functional, cell-based
Rule: IC50 below 500 nM gives yes. Equal to or above 500 nM gives no.

**Q:** Please state whether IC50 is below 500 nM for C/C(=N\N(C)S(=O)(=O)c1cc([N+](=O)[O-])ccc1N(C)CCN(C)C)c1cnn2ccc(C#N)cc12
**A:** no

**Q:** Please state whether IC50 is below 500 nM for CN(CCCN1CCOCC1)c1ccc([N+](=O)[O-])cc1S(=O)(=O)N(C)/N=C/c1cnn2ccc(C#N)cc12
**A:** no

**Q:** Please state whether IC50 is below 500 nM for CN(/N=C/c1cnn2ccc(C#N)cc12)S(=O)(=O)c1cc([N+](=O)[O-])ccc1OCc1ccccn1
**A:** no

**Q:** Please state whether IC50 is below 500 nM for C/C(=N\N(C)S(=O)(=O)c1cc([N+](=O)[O-])ccc1N(C)CCCN1CCOCC1)c1cnn2ccc(Br)cc12
**A:** no

**Q:** Please state whether IC50 is below 500 nM for CN(CCCN1CCOCC1)c1ccc([N+](=O)[O-])cc1S(=O)(=O)N(C)/N=C/c1cnn2ccc(Br)cc12
**A:** no

**Q:** Please state whether IC50 is below 500 nM for CN(C)CCCN(C)c1ccc([N+](=O)[O-])cc1S(=O)(=O)N(C)/N=C/c1cnn2ccc(C#N)cc12
**A:** yes

**Q:** Please state whether IC50 is below 500 nM for C/C(=N\NS(=O)(=O)c1cc([N+](=O)[O-])ccc1N(C)CCCN1CCOCC1)c1cnn2ccc(Br)cc12
**A:** no

**Q:** Please state whether IC50 is below 500 nM for CN(CCN1CCCCC1)c1ccc([N+](=O)[O-])cc1S(=O)(=O)N(C)/N=C/c1cnn2ccc(C#N)cc12
**A:** yes

**Q:** Please state whether IC50 is below 500 nM for CN(Cc1ccncc1)c1ccc([N+](=O)[O-])cc1S(=O)(=O)N(C)/N=C/c1cnn2ccc(C#N)cc12
**A:** yes

**Q:** Please state whether IC50 is below 500 nM for C/C(=N\NS(=O)(=O)c1cc([N+](=O)[O-])ccc1N(C)Cc1ccccn1)c1cnn2ccc(C#N)cc12
**A:** no

**Q:** Please state whether IC50 is below 500 nM for CN(/N=C/c1cnn2ccc(C#N)cc12)S(=O)(=O)c1cc(C#N)ccc1OCCN1CCOCC1
**A:** yes

**Q:** Please state whether IC50 is below 500 nM for C/C(=N\NS(=O)(=O)c1cc([N+](=O)[O-])ccc1N(C)CCCN1CCOCC1)c1cnn2ccc(C#N)cc12
**A:** no
